Muscarinic acetylcholine receptor M2 (Rattus norvegicus) Ki, compiled from various sources.
- study.system: Muscarinic acetylcholine receptor M2 (Rattus norvegicus)
- Sequence (P10980 whole entry): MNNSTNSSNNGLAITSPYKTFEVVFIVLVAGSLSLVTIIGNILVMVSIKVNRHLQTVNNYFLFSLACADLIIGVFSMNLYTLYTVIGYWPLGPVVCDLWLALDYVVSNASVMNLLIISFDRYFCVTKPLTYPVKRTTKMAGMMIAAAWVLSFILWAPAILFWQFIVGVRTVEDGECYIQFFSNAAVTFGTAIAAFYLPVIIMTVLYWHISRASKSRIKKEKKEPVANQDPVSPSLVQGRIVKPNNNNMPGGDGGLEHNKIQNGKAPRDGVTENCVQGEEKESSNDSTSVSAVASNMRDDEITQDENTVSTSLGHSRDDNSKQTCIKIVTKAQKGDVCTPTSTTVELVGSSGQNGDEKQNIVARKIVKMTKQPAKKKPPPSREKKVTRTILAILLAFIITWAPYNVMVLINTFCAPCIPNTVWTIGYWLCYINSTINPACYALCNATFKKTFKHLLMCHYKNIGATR

* COc1ccc(S(=O)(=O)c2ccc(C3(C4CCN(C5CCN(C(=O)c6cccc(C)c6C)CC5)CC4)OCCO3)cc2)cc1 | 1.4 nM
* COc1ccc(S(=O)(=O)c2ccc(C3(C4CCN(C5CCN(C(=O)c6ccccc6Cl)CC5)CC4)OCCO3)cc2)cc1 | 1.6 nM
* C[C@H]1OC2(CCN(C)CC2)CC1=O | 37000 nM
* c1ccc(CN2CCC3(CCc4ccccc4S3)CC2)cc1 | 10800 nM

Measured Ki of `COc1ccccc1CNCCCCCCN(C)CCCCCCCCN(C)CCCCCCN(CC(=O)N1c2ccccc2C(=O)Nc2cccnc21)CC(=O)N1c2ccccc2C(=O)Nc2cccnc21.O=C(O)C(=O)O.O=C(O)C(=O)O.O=C(O)C(=O)O.O=C(O)C(=O)O` : 18.6 nM

Measured Ki of `COc1ccc(S(=O)(=O)c2ccc(C3(C4CCN(C5CCN(C(=O)c6cc(N)ccc6Cl)CC5)CC4)OCCO3)cc2)cc1` : 0.53 nM

Measured Ki of `COc1ccc(S(=O)(=O)c2ccc(C3(C4CCN(C5CCN(C(=O)c6ccccc6C(F)(F)F)CC5)CC4)OCCO3)cc2)cc1` : 1 nM

====

- study.system: Muscarinic acetylcholine receptor M2 (Rattus norvegicus, UniProt P10980)
- Sequence (P10980 whole entry): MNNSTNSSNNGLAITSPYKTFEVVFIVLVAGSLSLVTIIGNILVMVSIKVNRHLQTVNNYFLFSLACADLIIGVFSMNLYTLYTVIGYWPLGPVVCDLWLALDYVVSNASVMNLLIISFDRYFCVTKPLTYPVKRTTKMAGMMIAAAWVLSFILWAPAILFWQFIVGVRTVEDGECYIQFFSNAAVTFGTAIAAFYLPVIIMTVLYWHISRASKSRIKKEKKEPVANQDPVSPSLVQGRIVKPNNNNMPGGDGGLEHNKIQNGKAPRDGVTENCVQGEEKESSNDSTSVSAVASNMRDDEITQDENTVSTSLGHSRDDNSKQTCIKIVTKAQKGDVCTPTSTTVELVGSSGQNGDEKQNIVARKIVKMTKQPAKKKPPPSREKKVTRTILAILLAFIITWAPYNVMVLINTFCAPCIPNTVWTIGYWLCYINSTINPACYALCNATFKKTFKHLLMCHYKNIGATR
Muscarinic acetylcholine receptor M2 (Rattus norvegicus, UniProt P10980) log10(Ki), compiled from various sources.
Values reflect log10 of reported Ki (nM).

Examples with their reported log10(Ki) follow.
- CN1CCN(c2nnc(-c3ccccc3)c3ccccc23)CC1: 5.06
- O=C(Nc1ccccc1-c1ccccc1)OC1CCNCC1: 2.43
- CC(C)N(CC[C@H](c1ccccc1)c1cc(CCNC(=O)CCCCCNC(=O)COc2ccc(/C=C/C3=[N+]4C(=Cc5ccc(-c6cccs6)n5[B-]4(F)F)C=C3)cc2)ccc1O)C(C)C: 0.95
- COc1ccc(S(=O)(=O)c2ccc(C3(C4CCN(C5CCN(C(=O)c6cccc(N)c6C)CC5)CC4)OCCO3)cc2)cc1: -0.40

Now take the following compound into account.
Measured log10(Ki) of `C#CCCON=C1CCN(C)CC1` : 4.00

====

Muscarinic acetylcholine receptor M2 (Rattus norvegicus) pKi, compiled from various sources.
- study.system: Muscarinic acetylcholine receptor M2 (Rattus norvegicus)
- Sequence (P10980 whole entry): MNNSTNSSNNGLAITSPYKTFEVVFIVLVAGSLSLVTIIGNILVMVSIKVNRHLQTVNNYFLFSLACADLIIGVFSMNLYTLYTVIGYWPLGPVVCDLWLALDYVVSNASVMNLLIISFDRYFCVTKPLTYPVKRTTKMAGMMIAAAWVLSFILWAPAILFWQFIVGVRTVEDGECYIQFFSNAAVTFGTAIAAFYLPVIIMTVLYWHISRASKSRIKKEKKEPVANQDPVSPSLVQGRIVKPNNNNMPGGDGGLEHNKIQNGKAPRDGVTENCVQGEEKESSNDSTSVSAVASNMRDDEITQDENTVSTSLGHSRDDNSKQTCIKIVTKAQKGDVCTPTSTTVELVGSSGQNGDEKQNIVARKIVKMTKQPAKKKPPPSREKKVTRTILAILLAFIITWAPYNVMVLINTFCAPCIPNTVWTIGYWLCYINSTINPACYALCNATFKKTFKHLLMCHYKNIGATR
// returns pKi (minus log10 of molar concentration), number only

Examples with their reported pKi follow.
• CC#CCON=C1CCN(C)CC1 = 5.10
• CN(CCCCCCCCN(C)CCCCCCNCC(=O)N1c2ccccc2C(=O)Nc2cccnc21)CCCCCCNCC(=O)N1c2ccccc2C(=O)Nc2cccnc21 = 8.62
• C#CCON=C1CCN(C)CC1 = 4.60
• COc1ccc([S+]([O-])c2ccc(C3(C4CCN(C5CCN(C(=O)c6ccccc6C)CC5)CC4)OCCO3)cc2)cc1 (configuration not stated) = 8.60
• CC1OC2(CCN(C)CC2)CC1=O (configuration not stated) = 5.28

Measured pKi of COc1ccc([S+]([O-])c2ccc(C3(C4CCN(C5CCN(C(=O)c6ccccc6C)CC5)CC4)O[C@H](C)[C@@H](C)O3)cc2)cc1 (some centres not stated) : 7.29

Measured pKi of `CN(CCCCCCCCN(C)CCCCCCN(CC(=O)N1c2ccccc2C(=O)Nc2cccnc21)CC(=O)N1c2ccccc2C(=O)Nc2cccnc21)CCCCCCN(CC(=O)N1c2ccccc2C(=O)Nc2cccnc21)CC(=O)N1c2ccccc2C(=O)Nc2cccnc21.O=C(O)C(=O)O.O=C(O)C(=O)O.O=C(O)C(=O)O.O=C(O)C(=O)O` : 7.66
